System: MEK
Experiment: Cellular assay for measuring MEK inhibition (inhibition of ERK phosphorylation)
Type: cell-based
Settings: inhibition of phosphorylation of MAP kinase (ERK) in murine colon 26 (C26) carcinoma cells; 1 hour at 37° C.; Western blotting
Procedure: Cellular Assay for Measuring MEK Inhibition The evaluation of the compounds as MEK inhibitors is performed in an assay that measures their ability to inhibit phosphorylation of MAP kinase (ERK) in murine colon 26 (C26) carcinoma cells. Since ERK1 and ERK2 represent the only known substrates for MEK, measurement of inhibition of ERK phosphorylation in cells provides direct readout of cellular MEK inhibition by the compounds of the invention. […]
quantity_measured: pIC50
The read-out pIC50 is expressed as -log10 of concentration in moles per litre.

[[record]]
molecule = "CCSc1ccc(Nc2c(C(=O)NOCCO)ccc(F)c2F)c(F)c1"
quantity_measured = "pIC50"
recorded_measurement = 8.66


**Q:** Returns the measured pIC50 for the input molecule. Input: Cc1ccc(Nc2c(C(=O)NOCCO)ccc(F)c2F)c(F)c1
**A:** 9.82

**Q:** Returns the measured pIC50 for the input molecule. Input: NCC#Cc1ccc(Nc2c(C(=O)NOCCO)ccc(F)c2F)c(F)c1
**A:** 6.33

**Q:** Returns the measured pIC50 for the input molecule. Input: CCc1ccc(Nc2c(C(=O)NOC[C@@H](O)CO)ccc(F)c2F)c(F)c1
**A:** 8.70

**Q:** Returns the measured pIC50 for the input molecule. Input: CCCc1ccc(Nc2c(C(=O)NOCCO)ccc(F)c2F)c(F)c1
**A:** 8.39

**Q:** Returns the measured pIC50 for the input molecule. Input: C#Cc1ccc(Nc2c(C(=O)NOCCO)ccc(F)c2F)c(F)c1
**A:** 9.82

**Q:** Returns the measured pIC50 for the input molecule. Input: O=C(NOCCO)c1ccc(F)c(F)c1Nc1ccc(C#CCCO)cc1F
**A:** 6.15

**Q:** Returns the measured pIC50 for the input molecule. Input: C=CCc1ccc(Nc2c(C(=O)NOCCO)ccc(F)c2F)c(F)c1
**A:** 8.11

**Q:** Returns the measured pIC50 for the input molecule. Input: C=Cc1ccc(Nc2c(C(=O)NOCCO)ccc(F)c2F)c(F)c1
**A:** 8.59

**Q:** Returns the measured pIC50 for the input molecule. Input: O=C(NOCCO)c1ccc(F)c(F)c1Nc1ccc(C#CCO)cc1F
**A:** 6.89

**Q:** Returns the measured pIC50 for the input molecule. Input: CCC(C)(O)CCc1ccc(Nc2c(C(=O)NOCCO)ccc(F)c2F)c(F)c1 (centres unmarked)
**A:** 6.23

**Q:** Returns the measured pIC50 for the input molecule. Input: CCc1ccc(Nc2c(C(=O)NOCCO)ccc(F)c2F)c(Cl)c1
**A:** 8.07
